Target: T1, MPP6, Q9NZW5
T1 sequence (Q9NZW5 125-219, limits assumed, looked up): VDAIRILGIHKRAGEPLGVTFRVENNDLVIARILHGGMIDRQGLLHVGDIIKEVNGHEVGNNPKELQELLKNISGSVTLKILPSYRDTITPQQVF
Assay: holdup assay
Parameters: key: below the threshold = too weak to quantify, mostly under pKd 3.1 to 4
Settings: plain residues with an end cap or a label only (N-terminal biotin on a linker: ado-ado)
Quantity Measured: pKd

For orientation, consider the following solved cases.
Data request: Read the entry QGPVETESVV [SLC45A4, Q5BKX6] and write its reported pKd.
Data returned: below the threshold

Data request: Indicate the recorded pKd value for this binder: PLSPEQPTKL [TRIM50, Q86XT4]
Data returned: 3.63

Data request: Recall and state the measured pKd for VNKSKLLTDV [KCNA1, Q09470] .
Data returned: below the threshold

Data request: Give me measured pKd, please, for this binder: LPAHHNATRL [SLC34A1, Q06495;Q06495-1]
Data returned: below the threshold

Data request: Recall and state the measured pKd for TPPAAKKSRI [BAZ1A, Q9NRL2] .
Data returned: below the threshold

Data request: Note down pKd recorded for PRISRSQSEL [CCDC134, Q9H6E4]
Data returned: below the threshold

Data request: # return recorded pKd for input PAPSSGKDYV [CLDN1, O95832]
Data returned: 3.88

Data request: Give recorded pKd. AKPSRISTVV [IQSEC2, Q5JU85]
Data returned: below the threshold

***
Data request: Tell me measured pKd for HSGYRLNDYV [CLDN14, O95500] please.
Data returned: 3.9

Data request: Query pKd for TLPRKRMSSI [GPRC6A, Q5T6X5]
Data returned: below the threshold

Data request: Recall and state the measured pKd for VDSTVKVWTC [TRAF7, Q6Q0C0] .
Data returned: below the threshold
